Source listed as ChEMBL document CHEMBL1133028.

# Test system: Melanoma tumor cell line
# Assay Procedure: Compound was evaluated for the growth inhibition of cell cultures derived from human melanoma tumors
# Format: functional
Quantity Kind: GI50 (µM)
Give bare numbers, in µM.

Guide cases for GI50, answers given:
# Structure String, Quantity Kind, Assay Value
records = [
    ("Cc1c(C)c(S(=O)(=O)N(CCCCCN)OCCCN)c(C)c2c1OC(C)(C)CC2", "GI50", 10.9),
    ("Cc1c(C)c(S(=O)(=O)N(CCCCN)OCCCN)c(C)c2c1OC(C)(C)CC2", "GI50", 19.1),
]

Hey, can you go through the list below and give me GI50 for every item?
1. Cc1c(C)c(S(=O)(=O)N(CCCCCON)OCCCN)c(C)c2c1OC(C)(C)CC2
2. Cc1cc(C)c(S(=O)(=O)N(CCCCCN)OCCCN)c(C)c1
3. Cc1c(C)c(S(=O)(=O)N(CCCN)OCCCN)c(C)c2c1OC(C)(C)CC2

1: 13.7; 2: 18.2; 3: 14.8

---

# Test system: Tumor Cell line
# Assay Procedure: Mean values over all human tumor cell lines were determined
# Type: functional
Hi there, I'd appreciate the recorded GI50 for every entry that follows.
One number for each entry, in µM.

Guide cases for GI50, answers given:
# Structure String, Quantity Kind, Assay Value
data = [
    ("Cc1c(C)c(S(=O)(=O)N(CCCCN)OCCCN)c(C)c2c1OC(C)(C)CC2", "GI50", 19.6),
    ("Cc1c(C)c(S(=O)(=O)N(CCCCCON)OCCCN)c(C)c2c1OC(C)(C)CC2", "GI50", 12.5),
    ("Cc1cc(C)c(S(=O)(=O)N(CCCCN)OCCCN)c(C)c1", "GI50", 16.4),
]

Hey, can you go through the list below and give me GI50 for every item?
1. Cc1cc(C)c(S(=O)(=O)N(CCCCCCN)OCCCN)c(C)c1
2. Cc1c(C)c(S(=O)(=O)N(CCCN)OCCCN)c(C)c2c1OC(C)(C)CC2
3. Cc1c(C)c(S(=O)(=O)N(CCCCCCN)OCCCN)c(C)c2c1OC(C)(C)CC2
4. Cc1c(C)c(S(=O)(=O)N(CCCCCN)OCCCN)c(C)c2c1OC(C)(C)CC2
5. Cc1cc(C)c(S(=O)(=O)N(CCCCCN)OCCCN)c(C)c1

1: 18.3; 2: 14; 3: 8.5; 4: 11.2; 5: 15.2

---

# Tested on: Panel renal (Carcinoma cell lines)
# Assay Procedure: Compound was evaluated for the growth inhibition of cell cultures derived from human renal cancer tumors
# Format: functional
Quantity Kind: GI50 (µM)
Give bare numbers, in µM.

Guide cases for GI50, answers given:
# Structure String, GI50 / µM
measured = [
    ("Cc1cc(C)c(S(=O)(=O)N(CCCCCN)OCCCN)c(C)c1", 16.1),
    ("Cc1c(C)c(S(=O)(=O)N(CCCCN)OCCCN)c(C)c2c1OC(C)(C)CC2", 20.9),
    ("Cc1c(C)c(S(=O)(=O)N(CCCCCON)OCCCN)c(C)c2c1OC(C)(C)CC2", 14.3),
    ("Cc1c(C)c(S(=O)(=O)N(CCCN)OCCCN)c(C)c2c1OC(C)(C)CC2", 14.7),
    ("Cc1cc(C)c(S(=O)(=O)N(CCCCCCN)OCCCN)c(C)c1", 17.5),
]

Hey, can you go through the list below and give me GI50 for every item?
1. Cc1cc(C)c(S(=O)(=O)N(CCCCN)OCCCN)c(C)c1
2. Cc1c(C)c(S(=O)(=O)N(CCCCCN)OCCCN)c(C)c2c1OC(C)(C)CC2
3. Cc1c(C)c(S(=O)(=O)N(CCCCCCN)OCCCN)c(C)c2c1OC(C)(C)CC2

18.2
16.5
11.3

---

Hi there, I'd appreciate the recorded GI50 for every entry that follows.
# System: Melanoma tumor cell line
# Assay Procedure: Compound was evaluated for the growth inhibition of cell cultures derived from human melanoma tumors
# Assay type: functional
Numbers only, in µM.

Guide cases for GI50, answers given:
# Structure String, Experimental System, Output Unit, GI50
records = [
    ("Cc1c(C)c(S(=O)(=O)N(CCCCCCN)OCCCN)c(C)c2c1OC(C)(C)CC2", "Melanoma tumor cell line", "µM", 10.7),
    ("Cc1cc(C)c(S(=O)(=O)N(CCCCCCN)OCCCN)c(C)c1", "Melanoma tumor cell line", "µM", 15.7),
]

Now take the following compound into account.
Query `Cc1cc(C)c(S(=O)(=O)N(CCCCN)OCCCN)c(C)c1` on Melanoma tumor cell line; GI50 returned: 18.1
